Source: ChEMBL document CHEMBL4138171

Below, each entry is listed alongside its reported IC90.
- protocol_summary: Cytotoxicity against human MRC5 cells
- Assay type: cell-based
Number in µM, nothing else.

chem_smiles: CC(C)c1cc(C(C)C)c(C(=O)/C=C(\O)C(=O)O)c(C(C)C)c1
units_of_measure: µM
IC90: 90

Ask: Any idea what IC90 was measured for O=C(O)/C(O)=C/C(=O)c1cc(C2CCCCC2)ccc1C1CCCCC1 ?
Result: 30

---

- measured_target: Albumin (Homo sapiens, UniProt P02768)
- Sequence (P02768 whole entry): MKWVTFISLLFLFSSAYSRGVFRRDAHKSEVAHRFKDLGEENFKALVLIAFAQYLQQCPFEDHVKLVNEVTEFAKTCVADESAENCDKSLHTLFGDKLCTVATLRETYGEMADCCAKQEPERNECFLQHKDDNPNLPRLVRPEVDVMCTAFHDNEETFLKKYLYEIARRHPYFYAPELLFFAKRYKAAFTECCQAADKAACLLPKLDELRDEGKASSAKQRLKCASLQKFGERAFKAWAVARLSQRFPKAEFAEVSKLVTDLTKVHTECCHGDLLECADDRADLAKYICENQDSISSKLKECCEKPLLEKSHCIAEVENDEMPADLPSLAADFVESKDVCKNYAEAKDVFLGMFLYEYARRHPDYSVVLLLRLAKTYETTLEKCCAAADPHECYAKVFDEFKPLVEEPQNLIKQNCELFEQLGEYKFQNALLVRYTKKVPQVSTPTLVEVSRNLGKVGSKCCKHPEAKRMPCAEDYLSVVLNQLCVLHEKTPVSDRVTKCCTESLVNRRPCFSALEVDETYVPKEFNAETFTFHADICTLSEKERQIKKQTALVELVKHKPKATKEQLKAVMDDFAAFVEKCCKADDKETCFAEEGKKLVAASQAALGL
- protocol_summary: Binding affinity to human serum albumin at 293K by Stern-Volmer plot method
- Format: ADME
- measurement_conditions: isolated protein
quantity: Kq (×10¹⁴ /M/s)
Kindly provide the numeric value in ×10¹⁴ /M/s only, without the unit symbol.

Ask: I have this compound here, O=C(O)/C(O)=C/C(=O)c1cc(C2CCCCC2)ccc1C1CCCCC1 , and I need its recorded Kq.
Result: 2.42
